Origin of measurements: ChEMBL document CHEMBL4513216

System: Plasmodium falciparum
Method notes: Screen against P. falciparum Asexual Blood Stage (ABS), at 5uM
Type: functional, Dd2
Condition: tested at 5 uM
Hit rate of the full screen: of about 65,000 compounds, about 2,100 (3.2%) showed an effect of 50% or more. The median lay at about -52%. Shown is part of a subset that was picked to be rich in strong results.

{"Molecule": "O=C(c1csc(I)c1)N1CCc2c(ncn2C2CC2)C1", "Tested target": "Plasmodium falciparum", "INHIBITION, %": -41.85}
{"Molecule": "CN1CCC2(COCCN(Cc3cccc(C#N)c3)C2)C1 (configuration not stated)", "Tested target": "Plasmodium falciparum", "INHIBITION, %": 57}
{"Molecule": "CC1CCN(C(=O)CN(Cc2ccco2)C2CC2)CC1", "Tested target": "Plasmodium falciparum", "INHIBITION, %": -115}
{"Molecule": "CC(=O)NCCC(=O)NCC1(c2c(F)cccc2F)CCCC1", "Tested target": "Plasmodium falciparum", "INHIBITION, %": -77.3}
{"Molecule": "CC(C)(C)CN1CCCC12CCN(S(=O)(=O)c1ccccc1)C2 (configuration not stated)", "Tested target": "Plasmodium falciparum", "INHIBITION, %": 32.5}
{"Molecule": "CNC(=O)c1cc2c(nc1NCC(C)C)CCN(c1ncccn1)CC2", "Tested target": "Plasmodium falciparum", "INHIBITION, %": -98.4}
{"Molecule": "CN1CCC2(COCCN(Cc3ccc4c(c3)OCO4)C2)C1 (configuration not stated)", "Tested target": "Plasmodium falciparum", "INHIBITION, %": -102}
{"Molecule": "CN1CC2(CCN(Cc3cccc(C#N)c3)CC2)CC1=O", "Tested target": "Plasmodium falciparum", "INHIBITION, %": -15.1}
{"Molecule": "C[C@@H]1CCC[C@H](C)N1CC(=O)N1CCc2[nH]c(-c3ccccc3)nc2C1", "Tested target": "Plasmodium falciparum", "INHIBITION, %": -64.1}
{"Molecule": "COCc1nc(CNC(=O)C(C)n2ccnc2C(C)C)no1 (configuration not stated)", "Tested target": "Plasmodium falciparum", "INHIBITION, %": -14.3}
{"Molecule": "COc1cc2c(cc1CNC(=O)C(C)n1ccnc1C(C)C)CCC2 (configuration not stated)", "Tested target": "Plasmodium falciparum", "INHIBITION, %": 60.2}
{"Molecule": "CCS(=O)(=O)CC(=O)NCC1(c2c(F)cccc2F)CCCC1", "Tested target": "Plasmodium falciparum", "INHIBITION, %": -90.7}
